pIC50: −log10 of the molar value.
// values below are pIC50; system is BTK (Homo sapiens)
Sequence (Q06187 whole entry): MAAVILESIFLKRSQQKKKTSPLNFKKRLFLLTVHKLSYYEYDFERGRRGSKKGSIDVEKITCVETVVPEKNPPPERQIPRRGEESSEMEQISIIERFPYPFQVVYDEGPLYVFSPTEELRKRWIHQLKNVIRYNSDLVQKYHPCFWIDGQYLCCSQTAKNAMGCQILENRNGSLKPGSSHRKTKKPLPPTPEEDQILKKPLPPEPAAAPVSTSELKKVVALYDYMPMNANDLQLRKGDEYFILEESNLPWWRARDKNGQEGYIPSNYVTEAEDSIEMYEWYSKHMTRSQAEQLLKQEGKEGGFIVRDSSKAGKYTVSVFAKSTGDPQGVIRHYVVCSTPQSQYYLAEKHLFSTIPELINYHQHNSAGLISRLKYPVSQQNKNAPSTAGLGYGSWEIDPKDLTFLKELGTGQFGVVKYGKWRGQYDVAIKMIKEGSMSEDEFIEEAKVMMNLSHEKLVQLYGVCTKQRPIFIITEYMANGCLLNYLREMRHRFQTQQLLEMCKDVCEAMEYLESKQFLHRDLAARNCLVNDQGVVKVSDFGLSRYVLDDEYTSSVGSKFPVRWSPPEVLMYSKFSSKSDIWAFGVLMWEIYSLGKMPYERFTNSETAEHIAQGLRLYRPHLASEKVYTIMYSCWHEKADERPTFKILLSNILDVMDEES
Assay readout: pIC50

Some solved cases for reference:
| Compound | Numeric value |
| --- | --- |
| CNC(=O)[C@H]1CCN(c2ncnc(N)c2F)C[C@@H]1N1CCC[C@@H](Nc2cc(Cl)cc(C(F)(F)F)c2)C1=O [Compound I-4] | 9.20 |
| Nc1ncnc(N2CCC[C@@H](N3CCC[C@@H](Nc4cc(Cl)cc(C(F)(F)F)c4)C3=O)C2)c1F [I^C, reference compound] | 8.70 |
| NC(=O)[C@H]1CCN(c2ncnc(N)c2F)C[C@@H]1N1CCC[C@@H](Nc2cc(F)cc(C(F)(F)F)c2)C1=O [Compound I-5] | 8.80 |

a. CN(C)C(=O)[C@H]1CCN(c2ncnc(N)c2F)C[C@@H]1N1CCC[C@@H](Nc2cc(Cl)cc(C(F)(F)F)c2)C1=O [Compound I-3]
b. NC(=O)[C@H]1CCN(c2ncnc(N)c2F)C[C@@H]1N1CCC[C@@H](Nc2cc(F)cc(Cl)c2)C1=O [Compound I-2]
c. CN1CCN(C(=O)[C@H]2CCN(c3ncnc(N)c3F)C[C@@H]2N2CCC[C@@H](Nc3cc(Cl)cc(C(F)(F)F)c3)C2=O)CC1 [Compound I-7]
Ask | Rank by pIC50 (largest to smallest). Answer by naming the labels in the order asked.
Reply | b, c, a
(b: 9.17, c: 8.92, a: 8.68)

* * *

# Lookup of reported pIC50 keyed by entry
# System tested: UniProt Q12809
# Sequence (Q12809 whole entry): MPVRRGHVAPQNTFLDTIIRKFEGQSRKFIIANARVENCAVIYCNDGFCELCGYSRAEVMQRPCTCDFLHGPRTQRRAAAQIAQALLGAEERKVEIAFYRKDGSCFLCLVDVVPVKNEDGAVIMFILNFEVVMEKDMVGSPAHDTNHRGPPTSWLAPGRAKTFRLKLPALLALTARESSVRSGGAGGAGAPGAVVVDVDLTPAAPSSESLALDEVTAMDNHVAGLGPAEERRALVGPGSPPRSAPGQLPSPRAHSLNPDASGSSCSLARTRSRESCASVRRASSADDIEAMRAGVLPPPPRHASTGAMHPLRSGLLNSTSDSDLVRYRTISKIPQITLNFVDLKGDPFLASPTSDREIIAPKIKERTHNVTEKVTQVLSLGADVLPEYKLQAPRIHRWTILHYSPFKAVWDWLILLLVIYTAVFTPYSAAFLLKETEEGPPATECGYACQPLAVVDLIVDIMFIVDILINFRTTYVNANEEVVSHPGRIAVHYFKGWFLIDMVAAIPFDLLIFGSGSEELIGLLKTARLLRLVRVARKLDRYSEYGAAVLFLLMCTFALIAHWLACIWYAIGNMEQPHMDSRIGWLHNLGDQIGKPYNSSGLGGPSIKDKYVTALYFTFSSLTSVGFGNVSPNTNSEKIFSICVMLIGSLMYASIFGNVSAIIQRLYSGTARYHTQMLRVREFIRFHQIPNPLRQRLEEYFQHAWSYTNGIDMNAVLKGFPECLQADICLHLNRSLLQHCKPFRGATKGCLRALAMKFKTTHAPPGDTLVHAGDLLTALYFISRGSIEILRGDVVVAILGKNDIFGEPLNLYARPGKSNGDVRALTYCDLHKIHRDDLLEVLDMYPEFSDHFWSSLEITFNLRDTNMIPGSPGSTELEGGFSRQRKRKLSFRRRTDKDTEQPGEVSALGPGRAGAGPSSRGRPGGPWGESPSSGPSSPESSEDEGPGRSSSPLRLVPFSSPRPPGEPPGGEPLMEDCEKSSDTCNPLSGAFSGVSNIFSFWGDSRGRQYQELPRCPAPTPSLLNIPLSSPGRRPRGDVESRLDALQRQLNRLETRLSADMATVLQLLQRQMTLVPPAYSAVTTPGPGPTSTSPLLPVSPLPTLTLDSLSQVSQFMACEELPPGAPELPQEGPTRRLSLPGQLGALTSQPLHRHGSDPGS
# Procedure text: FastPatch hERG inhibition assay (QPatch HT, HEK293 cells stably transfected with hERG cDNA)
# Particulars: HEK293 cells, automated patch clamp; IC50 estimated from hERG inhibition data
Interpret pIC50 as the negative base-10 log of the concentration measured in mol/L.

Some solved cases for reference:
| Molecule | pIC50 |
| --- | --- |
| CN(C)C(=O)[C@H]1CCN(c2ncnc(N)c2F)C[C@@H]1N1CCC[C@@H](Nc2cc(Cl)cc(C(F)(F)F)c2)C1=O | 4.84 |
| NC(=O)[C@H]1CCN(c2ncnc(N)c2F)C[C@@H]1N1CCC[C@@H](Nc2cc(Cl)cc(C(F)(F)F)c2)C1=O | 4.81 |
| NC(=O)[C@H]1CCN(c2ncnc(N)c2F)C[C@@H]1N1CCC[C@@H](Nc2cc(F)cc(Cl)c2)C1=O | 4.52 |
| Nc1ncnc(N2CCC[C@@H](N3CCC[C@@H](Nc4cc(Cl)cc(C(F)(F)F)c4)C3=O)C2)c1F [I^C, reference compound] | 5.93 |

Next, consider the following molecule.
Ask | Data request, read-out pIC50, for CNC(=O)[C@H]1CCN(c2ncnc(N)c2F)C[C@@H]1N1CCC[C@@H](Nc2cc(Cl)cc(C(F)(F)F)c2)C1=O
Reply | 4.86
